Biological target: human RORγt LBD (Homo sapiens (Human))
Assay: RORγt reporter assay (GAL4-RORγt LBD luciferase in HEK293T cells)
Assay type: cell-based
Details: HEK-293T, read-out: RORγt reporter Assay, % inhibition @ 6 μM, HEK293T cells, 6 μM
Source text: A reporter assay was used to test functional activity of RORγt modulatory compounds on transcriptional activation driven by the RORγt LBD. Cells used in the assay were co-transfected with two constructs. The first construct, pBIND-RORγt LBD, contained the wild type human RORγt LBD fused to the DNA binding domain of the GAL4 protein. The second construct, pGL4.31 (Promega Cat no. C935A), contained multiple GAL4 responsive DNA elements upstream of firefly luciferase. […]
Quick list: inhibition at 6 µM per entry.
measurement_name: inhibition at 6 µM (%)

compound | tested_on | test_value
COc1nc2ccc(C(O)(c3ccc(C)nc3C)c3cnnn3C)cc2c(C#N)c1Cc1ccc(C(F)(F)F)cc1 (single isomer, unassigned) [Example 78B] | human RORγt LBD (Homo sapiens (Human)) | 94
COc1ccc(Cc2cc3cc(C(O)(c4cncs4)c4cncn4C)ccc3nc2Cl)cc1 (stereo not drawn) | human RORγt LBD (Homo sapiens (Human)) | 34
COc1ccc(C(O)(c2ccc3nc(Cl)c(Cc4ccccc4)c(Cl)c3c2)c2cncs2)cn1 (stereo not drawn) | human RORγt LBD (Homo sapiens (Human)) | 41
COc1nc2ccc(C(O)(c3ccc(C)nc3C)c3cnnn3C)cc2c(Cl)c1Cc1ccc(C(F)(F)F)cc1 (stereo not drawn) [Example 77A] | human RORγt LBD (Homo sapiens (Human)) | 103
OC(c1cccnc1)(c1cccc(Cl)c1)c1ccc2nc(Cl)c(Cc3cccs3)c(Cl)c2c1 (stereo not drawn) | human RORγt LBD (Homo sapiens (Human)) | 103
OC(c1cccnc1)(c1cccc(Cl)c1)c1ccc2nc(Cl)c(Cc3ccc(Cl)cc3)c(Cl)c2c1 (stereo not drawn) | human RORγt LBD (Homo sapiens (Human)) | 70
COc1nc2ccc(C(O)(c3ccc(C(F)(F)F)nc3)c3cncn3C)cc2c(Cl)c1Cc1cc2ccccc2s1 (stereo not drawn) [Example 37A] | human RORγt LBD (Homo sapiens (Human)) | 100
Cn1cncc1C(O)(c1ccc(Cl)cc1)c1ccc2nc(C#N)c(Cc3ccc(-n4cccn4)cc3)c(C#N)c2c1 (stereo not drawn) [Example 71A] | human RORγt LBD (Homo sapiens (Human)) | 97
Cc1cc(C(O)(c2ccc(C#N)cc2)c2cncn2C)cc2c(C#N)c(Cc3ccc(-n4cccn4)cc3)c(C#N)nc12 (single isomer, unassigned) [Example 66B] | human RORγt LBD (Homo sapiens (Human)) | 95
Cn1cncc1C(O)(c1ccc(C(F)(F)F)nc1)c1ccc2nc(Cl)c(Cc3ccc(-n4cccn4)cc3)c(Cl)c2c1 (stereo not drawn) | human RORγt LBD (Homo sapiens (Human)) | 95
Cn1cncc1C(O)(c1ccc2nc(Cl)c(Cc3ccc(-n4cccn4)cc3)c(Cl)c2c1)c1cncn1C | human RORγt LBD (Homo sapiens (Human)) | 98
CCOc1nc2ccc(C(O)(c3cncs3)c3cncn3C)cc2cc1Cc1ccc(OC)cc1 (stereo not drawn) | human RORγt LBD (Homo sapiens (Human)) | 35
COc1nc2c(C)cc(C(O)(c3ccc(C(F)(F)F)nc3)c3cncn3C)cc2c(Cl)c1Cc1ccc(-n2cccn2)cc1 (stereo not drawn) [Example 29A] | human RORγt LBD (Homo sapiens (Human)) | 96
COc1ccc(C(O)(c2ccc3nc(Cl)c(Cc4ccc(-n5cccn5)cc4)c(Cl)c3c2)c2cncn2C)cn1 (stereo not drawn) | human RORγt LBD (Homo sapiens (Human)) | 103
COc1nc2ccc(C(O)(c3cnnn3C)c3cnc(C)n3C)cc2c(Cl)c1Cc1ccc(C(F)(F)F)cc1 (stereo not drawn) [Example 80A] | human RORγt LBD (Homo sapiens (Human)) | 103

###

Molecular target: human RORγt ligand binding domain (RORγt LBD) (Homo sapiens (Human), UniProt P51449)
Sequence (P51449 other isoform, or with tags, fused parts or gaps): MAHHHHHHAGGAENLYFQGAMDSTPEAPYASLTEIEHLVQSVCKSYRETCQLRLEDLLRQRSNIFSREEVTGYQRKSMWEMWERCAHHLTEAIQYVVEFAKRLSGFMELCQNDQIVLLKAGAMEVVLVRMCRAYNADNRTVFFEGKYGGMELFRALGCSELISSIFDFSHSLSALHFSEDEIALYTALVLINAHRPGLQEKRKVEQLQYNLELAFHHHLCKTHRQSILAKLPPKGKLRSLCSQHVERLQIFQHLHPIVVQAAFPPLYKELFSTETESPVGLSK
Experiment: RORγt ThermoFluor assay (thermal shift binding affinity)
Settings: estimated from thermal shift
Quick list: Kd per entry.

molecule | Kd [µM]
Cc1cc(C(O)(c2ccc(C(F)(F)F)nc2)c2cncn2C)cc2c(C#N)c(Cc3ccc(-n4cccn4)cc3)c(C#N)nc12 (single isomer, unassigned) [Example 65B] | 0.14
OC(c1ccc(F)cc1)(c1cccnc1)c1ccc2nc(Cl)c(Cc3ccc(-n4cccn4)cc3)c(Cl)c2c1 (stereo not drawn) [Example 46] | 0.022
Cn1cncc1C(O)(c1ccc(Cl)cc1)c1ccc2nc(O)c(Cc3ccc(-n4cccn4)cc3)c(Cl)c2c1 (single isomer, unassigned) [Example 55C] | 3.5

###

Quick list: inhibition at 6 µM per entry.
Biological target: human RORγt LBD (Homo sapiens (Human), UniProt P51449)
Assay: RORγt reporter assay (GAL4-RORγt LBD luciferase in HEK293T cells)
Format: cell-based
Conditions: HEK-293T, read-out: RORγt reporter Assay, % inhibition @ 6 μM, HEK293T cells, 6 μM
measurement_name: inhibition at 6 µM (%)

compound | units | test_value
COc1nc2ccc(C(N)(c3ccc(C)nc3C)c3cnnn3C)cc2c(Cl)c1Cc1ccc(C(F)(F)F)cc1 (single isomer, unassigned) [Example 87B] | % | 95
COc1nc2ccc(C(O)(c3ccccc3)C3CCN(C(C)=O)CC3)cc2c(Cl)c1Cc1ccc(-n2cccn2)cc1 (racemic) [Example 83A] | % | 104
Cn1cncc1C(O)(c1ccc(Cl)cc1)c1ccc2nc(O)c(Cc3ccc(-n4cccn4)cc3)c(Cl)c2c1 (single isomer, unassigned) [Example 55B] | % | 85
COc1ccc(Cc2c(OC)nc3ccc(C(O)(c4ccc(Cl)cc4)c4cncn4C)cc3c2Cl)cc1 (stereo not drawn) | % | 70
COc1nc2ccc(C(O)(c3ccc(Cl)cc3)c3cncn3C)cc2c(Cl)c1Cc1ccc(S(C)(=O)=O)cc1 (stereo not drawn) | % | 103
Cn1cncc1C(O)(c1ccc(Cl)cc1)c1ccc2nc(C#N)c(Cc3ccc(-n4cccn4)cc3)c(C#N)c2c1 (single isomer, unassigned) [Example 71B] | % | 105

###

Biological target: human RORγt LBD (Homo sapiens (Human), UniProt P51449)
Assay: RORγt reporter assay (GAL4-RORγt LBD luciferase in HEK293T cells)
Assay type: cell-based
Settings: HEK293T cells, 24 hours compound treatment
measurement_name: IC50 (µM)

compound | measurement_name | test_value
COc1ccc(C(O)(c2ccc3nc(OC)c(Cc4ccc(-n5cccn5)cc4)c(Cl)c3c2)c2cncs2)cn1 (stereo not shown) [Example 20A] | IC50 | 0.026
Cn1cncc1C(O)(c1ccc(C(F)(F)F)nc1)c1ccc2nc(C#N)c(Cc3ccc(-n4cccn4)cc3)cc2c1 (single isomer, unassigned) [Example 70B] | IC50 | 1
Cc1cc(C(O)(c2ccc(C#N)cc2)c2cncn2C)cc2c(C#N)c(Cc3ccc(-n4cccn4)cc3)c(C#N)nc12 (single isomer, unassigned) [Example 66C] | IC50 | 0.029
OC(c1cccnc1)(c1cccc(Cl)c1)c1ccc2nc(Cl)c(Cc3ccc(Cl)cc3)c(Cl)c2c1 (stereo not shown) [Example 2] | IC50 | 0.05

###

Quick list: inhibition at 6 µM per entry.
Target: human RORγt LBD (Homo sapiens (Human), UniProt P51449)
Assay: RORγt reporter assay (GAL4-RORγt LBD luciferase in HEK293T cells)
Format: cell-based
Conditions: HEK-293T, read-out: RORγt reporter Assay, % inhibition @ 6 μM, HEK293T cells, 6 μM

compound | tested_on | units | inhibition at 6 µM
OC(c1cccnc1)(c1ccc2nc(Cl)c(Cc3cccc(Cl)c3)cc2c1)c1cncs1 (stereo not shown) | human RORγt LBD (Homo sapiens (Human), UniProt P51449) | % | 77
OC(c1cccnc1)(c1ccc2nc(Cl)c(Cc3ccc(Cl)cc3)c(Cl)c2c1)c1cncs1 (stereo not shown) | human RORγt LBD (Homo sapiens (Human), UniProt P51449) | % | 85
CCc1nc2ccc(C(O)(c3cnnn3C)C3CN(C(C)=O)C3)cc2c(Cl)c1Cc1ccc(C(F)(F)F)cc1 (stereo not shown) [Example 90A] | human RORγt LBD (Homo sapiens (Human), UniProt P51449) | % | 98
COc1nc2ccc(C(O)(c3sc(C)nc3C)c3cnnn3C)cc2c(Cl)c1Cc1ccc(C(F)(F)F)cc1 (single isomer, unassigned) [Example 79B] | human RORγt LBD (Homo sapiens (Human), UniProt P51449) | % | 99

###

Target: human RORγt ligand binding domain (RORγt LBD) (Homo sapiens (Human))
Test: RORγt ThermoFluor assay (thermal shift binding affinity)
Details: estimated from thermal shift
Quick list: Kd per entry.
measurement_name: Kd (µM)

compound | test_value
COc1nc2c(C)cc(C(O)(c3ccc(Cl)cc3)c3cncn3C)cc2c(Cl)c1Cc1ccc(-n2cccn2)cc1 (single isomer, unassigned) [Example 28B] | 1.6
COc1nc2ccc(C(O)(c3ccc(C#N)cc3)c3cncn3C)cc2c(C#N)c1Cc1ccc(C(F)(F)F)cc1 (stereo not drawn) [Example 96A] | 0.0019
COc1nc2ccc(C(O)(c3ccc(F)cc3)c3cncn3C)cc2c(Cl)c1Cc1ccc(S(C)(=O)=O)cc1 (single isomer, unassigned) [Example 54C] | 0.023
COc1nc2c(OC)cc(C(O)(c3ccc(C(F)(F)F)nc3)c3cncn3C)cc2c(Cl)c1Cc1ccc(-n2cccn2)cc1 (single isomer, unassigned) [Example 59C] | 0.22
COc1nc2c(OC)cc(C(O)(c3ccc(C(F)(F)F)nc3)c3cncn3C)cc2c(Cl)c1Cc1ccc(-n2cccn2)cc1 (single isomer, unassigned) [Example 59B] | 0.0044
COc1nc2c(F)cc(C(O)(c3ccc(C(F)(F)F)nc3)c3cncn3C)cc2c(Cl)c1Cc1ccc(-n2cccn2)cc1 (single isomer, unassigned) [Example 58C] | 0.27
